# LD50 listing for each entry below
Test: Lethal dose 50 (LD50) through i.p. route in mice
Settings: mouse, in vivo, ip
Write the value in mg/kg as a bare number.

{"MOLECULE": "COc1ccc([C@@H]2[C@@H](C(=O)NCCCCNC(=N)NCC=C(C)C)[C@@H](C(=O)NCCCCNC(=N)NCC=C(C)C)[C@@H]2c2ccc(OC)c(OC)c2)cc1OC", "UNIT OF MEASURE": "mg/kg", "LD50": 7}

Let us move to another entry and its LD50.
Memo: COc1ccc(C=CC(=O)NCCCCNC(=N)NCC=C(C)C)cc1OC , reported LD50: 57

====

Test system: male Wistar rats
Conditions: 800 μg/kg i.v.
EXPERIMENTAL ENDPOINT: Δ RF

{"COMPOUND": "NCCCCN=C(N)N [agmatine, 4-(aminobutyl)guanidine, reference compound]", "TESTED TARGET": "male Wistar rats", "Δ RF": "+12 ± 4%"}
{"COMPOUND": "COc1ccc(C=CC(=O)NCCCCNC(=N)N)cc1OC", "TESTED TARGET": "male Wistar rats", "Δ RF": "-3 ± 2%"}

Bench note, male Wistar rats: COc1ccc(C=CC(=O)NCCCCNC(=N)NCC=C(C)C)cc1OC , Δ RF reads +25 ± 6 acts/min

Bench note, male Wistar rats: CC(C)=CCNC(=N)NCCCCN , Δ RF reads +10 ± 4%

Bench note, male Wistar rats: CC(C)=CCN=C(N)N [galegine, prenylguanidine, reference compound] , Δ RF reads +70 ± 8%

====

System: male Wistar rats
Conditions: 400 μg/kg i.v.
# Δ AP DIAST listing for each entry below
Write the value in mmHg as a bare number.

# example entries with known answers
{"COMPOUND": "CC(C)=CCNC(=N)NCCCCN [guanido-III, prenylagmatine]", "READOUT NUMBER": -2}
{"COMPOUND": "COc1ccc([C@@H]2[C@@H](C(=O)NCCCCNC(=N)NCC=C(C)C)[C@@H](C(=O)NCCCCNC(=N)NCC=C(C)C)[C@@H]2c2ccc(OC)c(OC)c2)cc1OC [diguanido-II]", "READOUT NUMBER": -17.0}

Memo: COc1ccc(C=CC(=O)NCCCCNC(=N)NCC=C(C)C)cc1OC [guanido-I] , reported Δ AP DIAST: -14

Memo: CC(C)=CCN=C(N)N [galegine, prenylguanidine, reference compound] , reported Δ AP DIAST: -26

Memo: NCCCCN=C(N)N [agmatine, 4-(aminobutyl)guanidine, reference compound] , reported Δ AP DIAST: -6

Memo: COc1ccc(C=CC(=O)NCCCCNC(=N)N)cc1OC [guanido-V] , reported Δ AP DIAST: -3

====

Tested on: male Wistar rats
Details: 3200 μg/kg i.v.
Decide using Δ AP DIAST alone. Strictly below -30 mmHg: True. Equal to or above -30 mmHg: False.

Completed entries (count: 2):
{"COMPOUND": "COc1ccc(C=CC(=O)NCCCCNC(=N)NCC=C(C)C)cc1OC", "TESTED TARGET": "male Wistar rats", "CLASSIFICATION": "False"}
{"COMPOUND": "CC(C)=CCNC(=N)NCCCCN", "TESTED TARGET": "male Wistar rats", "CLASSIFICATION": "True"}

Q: Please indicate whether the reported Δ AP DIAST of COc1ccc([C@@H]2[C@@H](C(=O)NCCCCNC(=N)NCC=C(C)C)[C@@H](C(=O)NCCCCNC(=N)NCC=C(C)C)[C@@H]2c2ccc(OC)c(OC)c2)cc1OC is strictly below -30 mmHg.
Result: True

Q: Please indicate whether the reported Δ AP DIAST of COc1ccc(C=CC(=O)NCCCCNC(=N)N)cc1OC is strictly below -30 mmHg.
Result: False

Q: Please indicate whether the reported Δ AP DIAST of CC(C)=CCN=C(N)N [galegine, prenylguanidine, reference compound] is strictly below -30 mmHg.
Result: True

Q: Please indicate whether the reported Δ AP DIAST of NCCCCN=C(N)N [agmatine, 4-(aminobutyl)guanidine, reference compound] is strictly below -30 mmHg.
Result: False
